Origin of measurements: patent US10526316B2

Counter-ions that a name gives are not always drawn.
assay.metric: melting point (°C)

These recorded examples may help you get a feel for the data.
{"compound": "CN[C@H]1CCN(C(=O)c2cc(C(C)Oc3ccc(F)c(F)c3)c3nc(N4CCOCC4)cnc3c2)C1 (single isomer, unassigned) [Compound 370a]", "meas.value": 128}
{"compound": "CC(Nc1cc(F)cc(F)c1)c1cc(CNCC(F)(F)F)cc2ncc(N3CCOCC3)nc12 (single isomer, unassigned) (as salt: HCl) (hydrate or solvate) [Compound 163]", "meas.value": 239}
{"compound": "CC(Nc1cc(F)cc(F)c1)c1cc(CO)cc2ncc(N3CCOCC3)nc12 (stereo not shown) [Compound 84]", "meas.value": 80}
{"compound": "Cc1c(F)cccc1NCc1cc(C(=O)NCCN(C)C)cc2ncc(N3CCOCC3)nc12", "meas.value": 98}
{"compound": "CC(Nc1cc(F)cc(F)c1)c1cc(C(=O)N(C)C)cc2ncc(N3CCOCC3)nc12 (single isomer, unassigned) [Compound 13]", "meas.value": 217}
{"compound": "CC(Nc1cccc(F)c1)c1cc(C(=O)N2CCC[C@H](O)C2)cc2ncc(N3CCOCC3)nc12 (single isomer, unassigned) [Compound 320a]", "meas.value": 110}
{"compound": "CC(Oc1ccc(F)c(F)c1)c1cc(C(=O)N2CCN3CCC[C@@H]3C2)cc2ncc(N3CCOCC3)nc12 (mixture of isomers)", "meas.value": 80}
{"compound": "CN(C)C(=O)c1cc(N2CCCC2c2cc(F)cc(F)c2)c2nc(N3CCOCC3)cnc2c1 (single isomer, unassigned) [Compound 395b]", "meas.value": 102}

P: CCc1cccc(NC(C)c2cc(C(=O)N3CCOCC3)cc3ncc(N4CCOCC4)nc23)c1 (stereo not shown)
Q: COC(=O)c1cc(C(C)Nc2cccc(F)c2)c2nc(N3CCOCC3)cnc2c1 (single isomer, unassigned) [Compound 262b]
R: CC(Oc1cccc(F)c1)c1cc(C(=O)NCCO)cc2ncc(N3CCOCC3)nc12 (single isomer, unassigned) [Compound 334a]
# input Hey, quick one: sort these by melting point, largest value first please. Note for the reader: the ranking is given by listing the labels in the order requested.
# output Q, R, P
(Q: 199.5 °C, R: 136 °C, P: 80 °C)
